Cited source for all entries: ChEMBL document CHEMBL4325844

experiment_summary: Cytotoxicity against rat H9c2 cells assessed as cell viability at 20 uM after 24 hrs by MTT assay relative to control
Type: cell-based
test_settings: read-out: Activity
measurement_label: viability at 24 h, 20 µM

viability at 24 h, 20 µM reported for this molecule "O=C(CCN1CCN(Cc2cccc([N+](=O)[O-])c2)CC1)Nc1nc(-c2ccccc2Br)cs1" : > 80%

Entry "COc1ccc(-c2csc(NC(=O)CCN3CCN(Cc4cccc([N+](=O)[O-])c4)CC3)n2)cc1OC" , viability at 24 h, 20 µM reported as > 80%

Kindly note the recorded viability at 24 h, 20 µM for "COc1cc(-c2csc(NC(=O)CCN3CCN(Cc4cccc([N+](=O)[O-])c4)CC3)n2)ccc1O" , which is > 80%
